Method notes: folding stability dG unfold from trypsin proteolysis; higher = more stable
Reported folding stability dG unfold by item:
Write the answer as a number in kcal/mol, unit excluded.

{"Sequence code": "SAGGSAGGSALKPNETATIRILTTAPDGKPYVLVVEVRVLPDGGVEVLGYKLVTLSDLEKNSAGGSAGGSAG [r3_212_TrMRF]", "Unit spec": "kcal/mol", "folding stability dG unfold": 2.53}
{"Sequence code": "SAITIMIPPNQTLEEIADELGFPGIKDVKHEPFEPGYYPATFEFPGDPDREIEIMFNPEPDWMMVEVEDSAG [r14_713_TrROS]", "Unit spec": "kcal/mol", "folding stability dG unfold": 0.809}
{"Sequence code": "SAGGMKITKEGNELTLTYPNLTVTYDPNTGKMTITNPATGKTVTIPVPATSLEEKLAAVEEVKAALPSAGGS [r8_447_JUSTAS]", "Unit spec": "kcal/mol", "folding stability dG unfold": 1.06}

# input Would you kindly share the measured folding stability dG unfold for SAGGSAGGSAGLFIPETGLLVVYDPAPGTLHVFRITGGDGLEIEPVGEVEVDPDNPELGTAFSAGGSAGGSA [r18_448_TrMRF] ?
# output -0.284

# input GET /values?readout=folding stability dG unfold&item= SEVEVTVTVTLTRRLPDGREREVTVTLTLRLEFDPELSEEELESPELRKRLEELRREALERARRLAEELASA [r9_237_TrROS_Hall]
# output 4.64

# input Would you kindly share the measured folding stability dG unfold for SAGGSAMTVTTLPDGSTVIHLPSGTTITITTAPDGTKPITITPPDGVPTTFPASVSLEDAIKAALSSAGGSA [r15_371_JUSTAS] ?
# output 3.58

# input Dear colleague, I am looking for the recorded folding stability dG unfold of the following sequence: SAGGSAMPPNMKKVPISIHIPAENYKRDPDGKWKFTADELARHIQRGFRQRFGMPIKKIDVHVHPPSAGGSA [r15_415_TrROS]
# output -0.000463

* * *

Method notes: folding stability dG unfold (combined trypsin and chymotrypsin); higher = more stable
List of folding stability dG unfold values.
Please give a number only; it is taken to be in kcal/mol.

// below: answered sequences
{"Sequence code": "SAGPGWIMIRVKIKMRKWKDGKPVRRPIEIPIMAPADGDPEAARRKAEELAEFLAQMYGMEIEDVEIFPSAG [r5_497_TrROS]", "folding stability dG unfold (kcal/mol)": 3.55}
{"Sequence code": "SAGMIEILELPPNKAIVKIYDPKTGKFEIIEIDFGGKDGKPLSLEELIEKIKKLAKELYPDLEINVTPLSAG [r5_293_TrMRF]", "folding stability dG unfold (kcal/mol)": 2.61}
{"Sequence code": "SAGGSASLASLRKVGETVTYTITPDGTLTVTTHTFYRDPVTGELVVESTTTTTPIPPGDAAALAALSAGGSA [r15_207_JUSTAS]", "folding stability dG unfold (kcal/mol)": 2.5}
{"Sequence code": "SAGKIEIEVNEDGYKVRIKVEIEGKTYEFEIKVEGLSVEEIVKKALEELKKLFPNKKIKVEVEILPKKESAG [r5_180_TrROS_Hall]", "folding stability dG unfold (kcal/mol)": 4.9}
{"Sequence code": "SAGGSAGGGTVLAEEEEPETGLVRRLVRLPDGTLVESVSLVDPETGEVLSEEVLRETPLPPPGLSAGGSAGG [r6_928_JUSTAS]", "folding stability dG unfold (kcal/mol)": 1.29}
{"Sequence code": "SAGGSAGGSAGGGMMLAEFLKYDPRNPTATVVSVRTFSDPEEARAEAEKRGLLVRVIEPSAGGSAGGSAGGS [r10_657_JUSTAS]", "folding stability dG unfold (kcal/mol)": -0.111}

# input Which measured folding stability dG unfold value corresponds to SAGGSAGGSAGGGIVIEGDIESIEVEKNPDTDYYLVTVRFKSTDKPYTFVFKKDEKLDVSAGGSAGGSAGGS [r10_819_TrMRF] ?
# output 1.77

# input Need folding stability dG unfold of SAGGSAGGSAMEIEIEIEIPVPVPGGVPSPENPEVAEERAEEIKEKYAKEGLKVKVKITVVSAGGSAGGSAG [r3_258_JUSTAS] , thanks.
# output 1.07

# input Data request, read-out folding stability dG unfold, for SAGGSAKMKKVKITLYAKVKSLEEAKEIAEEIKKSFPSIEKVEVKTEPLEDGSLLVKVDAIFYVPESAGGSA [r15_726_TrMRF]
# output 3.7

# input Consider the sequence shown here: SAGGSSSVGVDSSDPEKTKEAILKAYGTDAEPVFTTDPATGRLTITVPETGDVHTVTAGTRTETAASAGGSA [r2_205_JUSTAS] What is its recorded folding stability dG unfold?
# output 0.801

# input Item SAGGSAGGSDDMIPIPFKIKLKDPNGKPHEFPVTIWINPEDGMIMIRYPNQPIMIDPDKIEIESAGGSAGGS [r20_48_TrROS] has what recorded folding stability dG unfold?
# output 1.01

# input Quick one: folding stability dG unfold of SAGGSAGGSAGGPKVEVTVKGKPATVEWFPEEGKARVTVPDGRVYVLDLNGDKLEIKPLSAGGSAGGSAGGS [r10_724_TrMRF] ?
# output 0.512

Values compiled from the supplement of paper PMC12764529.
